Recorded IC50 values for a group of compounds are listed next.
Biological target: Tyrosine-protein kinase JAK3 (Homo sapiens)
Sequence (P52333 whole entry): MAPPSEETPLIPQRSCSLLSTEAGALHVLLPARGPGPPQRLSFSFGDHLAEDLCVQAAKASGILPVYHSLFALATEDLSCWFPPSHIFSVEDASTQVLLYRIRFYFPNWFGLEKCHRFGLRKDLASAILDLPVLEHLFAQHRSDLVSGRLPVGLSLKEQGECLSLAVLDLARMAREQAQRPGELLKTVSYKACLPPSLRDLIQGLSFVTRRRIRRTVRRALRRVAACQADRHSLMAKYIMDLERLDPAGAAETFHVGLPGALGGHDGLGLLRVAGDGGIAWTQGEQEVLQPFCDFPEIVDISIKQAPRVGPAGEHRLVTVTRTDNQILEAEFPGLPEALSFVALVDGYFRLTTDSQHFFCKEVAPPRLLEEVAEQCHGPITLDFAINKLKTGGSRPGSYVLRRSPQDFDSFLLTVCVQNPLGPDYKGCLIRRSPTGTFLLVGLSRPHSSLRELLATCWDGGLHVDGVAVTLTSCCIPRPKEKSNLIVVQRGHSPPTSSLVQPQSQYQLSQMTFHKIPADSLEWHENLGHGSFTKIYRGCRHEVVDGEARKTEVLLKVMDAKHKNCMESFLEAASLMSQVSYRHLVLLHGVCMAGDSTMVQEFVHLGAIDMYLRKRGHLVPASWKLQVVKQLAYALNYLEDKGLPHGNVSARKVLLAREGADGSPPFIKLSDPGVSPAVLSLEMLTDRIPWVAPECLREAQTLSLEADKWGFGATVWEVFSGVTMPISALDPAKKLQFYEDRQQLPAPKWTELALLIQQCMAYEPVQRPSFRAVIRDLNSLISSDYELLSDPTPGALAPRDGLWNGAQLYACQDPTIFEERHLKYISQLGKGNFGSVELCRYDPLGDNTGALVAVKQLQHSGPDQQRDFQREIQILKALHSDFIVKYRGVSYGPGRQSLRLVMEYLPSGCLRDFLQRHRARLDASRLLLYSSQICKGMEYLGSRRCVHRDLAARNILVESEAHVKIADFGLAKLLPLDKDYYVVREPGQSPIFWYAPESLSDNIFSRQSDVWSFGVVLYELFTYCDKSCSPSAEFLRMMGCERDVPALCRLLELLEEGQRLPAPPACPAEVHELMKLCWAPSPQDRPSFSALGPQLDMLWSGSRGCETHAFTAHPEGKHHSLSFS
Write down the numeric answer in nM and omit the unit.

{"input smiles": "Cc1cnc(Nc2ccc(CNS(=O)(=O)C3CC3)cc2)nc1-c1cnn(C(C)C)c1", "IC50 [nM]": 265}
{"input smiles": "CCS(=O)(=O)NCc1ccc(Nc2ncc(C)c(-c3cnn(C(C)C)c3)n2)cc1", "IC50 [nM]": 287}
{"input smiles": "C=CC(=O)NCc1ccc(Nc2ncc(C)c(-c3cnn(C(C)C)c3)n2)cc1", "IC50 [nM]": 208}

Field: next compound
Provide the documented IC50 with Tyrosine-protein kinase JAK3 (Homo sapiens) as the system for Cc1cnc(Nc2ccc(CNC(=O)CCl)cc2)nc1-c1cnn(C(C)C)c1
166

###

Recorded Ratio IC50 values for a group of molecules are listed next.
Test: Selectivity ratio of IC50 for TYK2 (unknown origin) to IC50 for JAK2 (unknown origin)
Enter the number alone.

{"input smiles": "Cc1cnc(Nc2ccc3c(c2)CCN(C(=O)/C=C/CN(C)C)C3)nc1-c1cnn(C(C)C)c1", "readout value": 25}
{"input smiles": "C=CS(=O)(=O)NCc1ccc(Nc2ncc(C)c(-c3cnn(C(C)C)c3)n2)cc1", "readout value": 41.2}
{"input smiles": "CCS(=O)(=O)NCc1ccc(Nc2ncc(C)c(-c3cnn(C(C)C)c3)n2)cc1", "readout value": 32}
{"input smiles": "Cc1cnc(Nc2ccc(CNS(=O)(=O)C3CC3)cc2)nc1-c1cnn(C(C)C)c1", "readout value": 40.8}
{"input smiles": "Cc1cnc(Nc2ccc(CNC(=O)/C=C/C(=O)c3ccccc3)cc2)nc1-c1cnn(C(C)C)c1", "readout value": 6.1}

Bench note: what Ratio IC50 did Cc1cnc(Nc2ccc(CNC(=O)CCl)cc2)nc1-c1cnn(C(C)C)c1 show?
10

Bench note: what Ratio IC50 did C=CC(=O)NCc1ccc(Nc2ncc(C)c(-c3cnn(C(C)C)c3)n2)cc1 show?
9.6

Bench note: what Ratio IC50 did Cc1cnc(Nc2ccc(CNC(=O)C3CC3)cc2)nc1-c1cnn(C(C)C)c1 show?
15.5
